assay protocol: Stability of bleach catalysts: UV-vis absorbance at 445 nm and appearance of alkaline solutions
Assay type: physicochemical
measurement setup: 0.28 mM in 50 wt. % water/50 wt. % acetone, pH 11, t = 48 h
quantity measured: Absorption at 445 nm, t = 48 h

Please review the following examples before continuing.
{"molecule": "CC(C)(C)C1=NS(=O)(=O)c2ccccc21", "Absorption at 445 nm, t = 48 h": "<0.05"}
{"molecule": "O=S1(=O)N=C(c2ccccn2)c2ccccc21", "Absorption at 445 nm, t = 48 h": "<0.05"}
{"molecule": "CCCCCCCCCCCCC1=NS(=O)(=O)c2ccccc21 [Bleach catalyst D, 3-lauryl-1,2-benzisothiazole-1,1-dioxide]", "Absorption at 445 nm, t = 48 h": 0.07}

Inquiry: Report measured Absorption at 445 nm, t = 48 h; entry is O=S1(=O)N=C(c2ccccc2)c2ccccc21 [Bleach catalyst B, 3-phenyl-1,2-benzisothiazole-1,1-dioxide]
Reply text: <0.05

Inquiry: Report measured Absorption at 445 nm, t = 48 h; entry is O=S1(=O)N=C(c2cccnc2)c2ccccc21
Reply text: <0.05

Inquiry: Report measured Absorption at 445 nm, t = 48 h; entry is CC1=NS(=O)(=O)c2ccccc21 [Bleach catalyst A, 3-methyl-1,2-benzisothiazole-1,1-dioxide]
Reply text: 0.37
